Answer each item with its documented PBM binding z-score.
# Tested on: PPARg DBDmut:RXRa IVT, anti-PPARg (DBD mutation: PPARg1 K132A/R137A, NR concentration 270 nM, RXRa partner concentration 90 nM)
# PROTOCOL TEXT: PBM binding z-score (relative to random genomic background probes); higher = stronger binding; sequences stand for … in GC…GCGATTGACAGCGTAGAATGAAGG
Form field (numeric): enter value without unit.

Req: Determine from records and report PBM binding z-score for GGAACGAGGGCAAGTTGACAGCAGAGTTTGATGG
Resp: -0.195

Req: Determine from records and report PBM binding z-score for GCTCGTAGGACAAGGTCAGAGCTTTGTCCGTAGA
Resp: -1.37

Req: Determine from records and report PBM binding z-score for ATCGAAAGGTCGAAGTGAGTATAGAGAAAGGGAA
Resp: 1.1

Req: Determine from records and report PBM binding z-score for CCTATTAGTTGACAATAAGGGCAACCGAAGCTCG
Resp: 0.307

Req: Determine from records and report PBM binding z-score for CTCGAAAGGTCGTGCTCAGGAGAGTATACCAAAC
Resp: 0.0921

Req: Determine from records and report PBM binding z-score for AGAACGTGGGCACGCTGAGTTGATAGCAGAGTAG
Resp: 0.109

Req: Determine from records and report PBM binding z-score for TCTCGGAGGACACGAATGGTCAGAGCTCGACATC
Resp: -0.6

Req: Determine from records and report PBM binding z-score for CTACCAAGGTGAATAAGGTCGTTGATTACTATTC
Resp: 0.0322

Req: Determine from records and report PBM binding z-score for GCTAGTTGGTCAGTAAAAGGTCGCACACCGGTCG
Resp: -0.491

Req: Determine from records and report PBM binding z-score for CCTAGCAGGGCAATCTGGGTCACTCAAGGCTTGA
Resp: -0.465

Req: Determine from records and report PBM binding z-score for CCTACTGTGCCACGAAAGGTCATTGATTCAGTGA
Resp: 0.906

Req: Determine from records and report PBM binding z-score for TCACCAAGGTGAAGGTCGTTGATCCCTCTGTAGA
Resp: 0.477

Req: Determine from records and report PBM binding z-score for GATACAGGCTCAGCTAGAGGCCAGAGTATGGAAA
Resp: -0.391

Req: Determine from records and report PBM binding z-score for TCGAGTAGGTTAGTCGGGGCATTCAACCAACATA
Resp: -0.398

Req: Determine from records and report PBM binding z-score for CCAGACAGGTGAGAAGGTAACTTAGCCTCGATTA
Resp: 0.104

Req: Determine from records and report PBM binding z-score for CCTACTGGGCCATCAGGTCAATGATATCAACGTT
Resp: 0.416

Req: Determine from records and report PBM binding z-score for TCTATTAGTTGAAGAGCAACCGACGAGTCCGTTT
Resp: -0.198

Req: Determine from records and report PBM binding z-score for TCTCGGAGCACACGAAAGGTCAGAGCTCGACATC
Resp: -0.964

Req: Determine from records and report PBM binding z-score for ACTAGCAGGCCAAGTTTGGGTCACGCAAACAAAG
Resp: -0.285

Req: Determine from records and report PBM binding z-score for CAAACTAGGTCACGAAAGGTCGAAGTCGAATGAC
Resp: 6.19

Req: Determine from records and report PBM binding z-score for AGTCAAAGTTCACTATGTAACGTAAGATTCAGCT
Resp: 1.02

Req: Determine from records and report PBM binding z-score for ATCTCTAGGTAAGAGTCAGTTCAGTGAAGAACGC
Resp: 0.489

Req: Determine from records and report PBM binding z-score for TAGCCTAGGTCATGCGGGCCAGTAGAGTGTCGGC
Resp: -0.889

Req: Determine from records and report PBM binding z-score for TCTCGGAGGACACGAAAGGTCATAGCTCGACATC
Resp: 1.29

Req: Determine from records and report PBM binding z-score for ACAGACAGGTGATGAAGGTCACTCAGGCTATCAT
Resp: 0.688

Req: Determine from records and report PBM binding z-score for GGAACGAGGACATTCGAGTTGATAGCATGGCGAT
Resp: -0.159

Req: Determine from records and report PBM binding z-score for CAAGCTAGGTCACGAAAGGTCAAAGTCGAATGAC
Resp: 2.17

Req: Determine from records and report PBM binding z-score for CTCTAAAGGTCGGTTGAGGTGAGTATACGGATAA
Resp: 0.0568

Req: Determine from records and report PBM binding z-score for ACAGTCAGGTGAGTGAAGGTAACTCAGCTGGACG
Resp: -0.123

Req: Determine from records and report PBM binding z-score for TCTAGTTGGTAACGGAGGTCACACACGACGGGTA
Resp: 0.969

Req: Determine from records and report PBM binding z-score for CCTACTGGGCCATCAGGTCATTGTTATCAACGTT
Resp: 1.61

Req: Determine from records and report PBM binding z-score for ACTATTAGTTGAGACGACGGCAACCGATAGGTTG
Resp: 0.669

Req: Determine from records and report PBM binding z-score for ACTAGCAGGCCGAGGGTCACTCAAGATTAGTCCG
Resp: -0.888

Req: Determine from records and report PBM binding z-score for CTCGAAAGGTCGTGCTCAGGTGGGTATACCAAAC
Resp: 0.375

Req: Determine from records and report PBM binding z-score for CGTCCAAGGTGAAGGTCAGTGAAAGAGACTCGAA
Resp: -0.298

Req: Determine from records and report PBM binding z-score for TCTCGGAGGACACGAAAGGTCACAGCTCGACATC
Resp: 0.919

Req: Determine from records and report PBM binding z-score for CCGACTGGCGCAGAAAGGTTACCATACCATCCGG
Resp: -0.533

Req: Determine from records and report PBM binding z-score for GTAGCAAGGTGAATAGGTCGTTGATGAGTAGGCG
Resp: -0.625

Req: Determine from records and report PBM binding z-score for CAAATTAGGTCACGAAAGGTCAAAGTCGAATGAC
Resp: 4.28

Req: Determine from records and report PBM binding z-score for CGTCCAAGGGCAGAGAGGTCAGTGAATGCCGAGT
Resp: -1.66

Req: Determine from records and report PBM binding z-score for AGCACGAGGGCACGCTGAGTTGATAGCAGAGTAG
Resp: 0.0423

Req: Determine from records and report PBM binding z-score for GCGACTGGGGCATCAGCAGGTTACCACAACTTAA
Resp: -0.499
